The values you see were collected from ChEMBL document CHEMBL2016440.

Reported pIC50 values follow for various compounds
system: Candida albicans; experiment: Antifungal activity against fluconazole-resistant Candida albicans isolate 2 assessed as growth inhibition after 48 hrs by alamar blue fluorescence assay in presence of 8 ug/ml fluconazole; type: functional, organism-based; conditions: isolate 2, 48 h
Worth noting: pIC50 values are minus log10 of concentrations stated in mol/L.

O=C(Cn1c2ccccc2c2nc3n(c(=O)c21)CCS3)N1CCC(F)(F)C1 : 5.23

## Input Please look at this compound and report its pIC50: "O=C(Cn1c2ccc(F)cc2c2nc3n(c(=O)c21)CCS3)N1CCCCC1"
## Output 6.30

###

tested on: Candida albicans; experiment: Antifungal activity against fluconazole-resistant Candida albicans isolate 2 assessed as growth inhibition after 48 hrs by alamar blue fluorescence assay in presence of 8 ug/ml fluconazole; type: functional, organism-based; details: isolate 2, 48 h
reported_property: IC50 (µM)
Enter your answer as a number in µM; do not include the unit.

O=C(Cn1c2ccc(F)cc2c2nc3n(c(=O)c21)CCS3)N1CCCC1 : 0.6
O=C(Cn1c2ccccc2c2nc3n(c(=O)c21)CCS3)N1CCCC1 : 1.1

Kindly review the next compound as well.
## Input Please look at this compound and report its IC50: "CC1CCN(C(=O)Cn2c3ccccc3c3nc4n(c(=O)c32)CCCS4)CC1"
## Output 12.1

###

system: Candida albicans; experiment: Antifungal activity against fluconazole-resistant Candida albicans isolate 2 assessed as growth inhibition after 48 hrs by alamar blue fluorescence assay in presence of 8 ug/ml fluconazole; format: functional, organism-based; conditions: isolate 2, 48 h
reported_property: IC50

Some compounds with recorded IC50:
O=C(Cn1c2ccccc2c2ccncc21)N1CCCCC1 : > 26 µM
COc1ccc2c(c1)c1nc3n(c(=O)c1n2CC(=O)N1CCC(C)CC1)CCS3 : > 26 µM
Oc1c2nc3ccccc3c-2nc2n1CCS2 : > 10 µM
O=C(O)Cn1c2ccc(F)cc2c2nc3n(c(=O)c21)CCS3 : > 26 µM
O=C(Cn1c2ccccc2c2nc3n(c(=O)c21)CCS3)NCCc1ccc(Cl)cc1 : > 10 µM

## Input Look up and report IC50, with Candida albicans as system, for "COc1ccc2c(c1)c1nc3n(c(=O)c1n2CC(=O)N1CCC(Cc2ccccc2)CC1)CCS3"
## Output > 26 µM

## Input Look up and report IC50, with Candida albicans as system, for "COc1ccc(NC(=O)Cn2c3ccccc3c3nc4n(c(=O)c32)CCS4)cc1"
## Output > 10 µM
